Recorded values, source patent US20160143884A1.

Test: Toxicity by counting live cells (trypan blue exclusion)
Type: cell-based
Settings: live cell count, read-out: Cytotoxicity TC50
Could you please report measured CC50 for the items listed next?
Give the value in nM but do not write nM after it.

Reported CC50 for CCOCCNc1cc(-n2nc(C)c3c2CC(C)(C)CC3=O)ccc1C(N)=O was 2170

Reported CC50 for Cc1nn(-c2ccc(C(N)=O)c(NCCO)c2)c2c1C(=O)CC(C)(C)C2 was 617

Reported CC50 for Cc1nn(-c2ccc(C(N)=O)c(NC3CCC(O)CC3)c2)c2c1C(=O)CC(C)(C)C2 (stereo not shown) was 436

Reported CC50 for COCCNc1cc(-n2nc(C)c3c2CC(C)(C)CC3=O)ccc1C(N)=O was 1160

====

Tested on: HIV-1Ba-L
Assay: Anti-HIV efficacy evaluation in fresh human PBMCs (reverse transcriptase activity readout)
Assay type: cell-based
Conditions: Human immunodeficiency virus 1, PBMC, 168 h, read-out: Antiviral Activity IC50 (50% inhibition of virus replication); HIV-1Ba-L in PBMCs, seven days
Source text: Anti-HIV Efficacy Evaluation in Fresh Human PBMCs Assay Protocol: Fresh human PBMCs, seronegative for HIV and HBV, are isolated from screened donors (Biological Specialty Corporation, Colmar, Pa.). Cells are pelleted/washed 2-3 times by low speed centrifugation and re-suspension in PBS to remove contaminating platelets. […] Banded PBMCs are gently aspirated from the resulting interface and subsequently washed 2× with PBS by low speed centrifugation. […]
EXPERIMENTAL_READOUT: IC50 (nM)
Give the value in nM but do not write nM after it.

Reported IC50 for CC1(C)CC(=O)c2c(C(F)(F)F)nn(-c3ccc(C(N)=O)c(N[C@H]4CC[C@H](O)CC4)c3)c2C1 was 20

====

Experiment: Cell viability (CellTiter 96 AQueous One) in HepG2 2.2.15
Type: cell-based
Conditions: human, HepG2-2.2.15 cells, read-out: Cytotoxicity TC50
EXPERIMENTAL_READOUT: CC50 at 6 days (nM)
Give the value in nM but do not write nM after it.

Reported CC50 at 6 days for CC1(C)CC(=O)c2c(C(F)(F)F)nn(-c3ccc(C(N)=O)c(N[C@H]4CC[C@H](O)CC4)c3)c2C1 [Compound 9] was 73

====

Test: MTS staining for PBMC viability to measure cytotoxicity
Format: cell-based, human
Settings: human, PBMCs
EXPERIMENTAL_READOUT: CC50 at 7 days (nM)
Give the value in nM but do not write nM after it.

Reported CC50 at 7 days for CC1(C)CC(=O)c2c(C(F)(F)F)nn(-c3ccc(C(N)=O)c(N[C@H]4CC[C@H](O)CC4)c3)c2C1 [Compound 9] was 30

====

Could you please report measured Selectivity Index TI (TC50/EC50) for the items listed next?
Test system: HIV-1
Assay: HIV virus inhibition, p24 in supernatant by ELISA
Assay type: cell-based
Just the number, please, no unit after it.

Reported Selectivity Index TI (TC50/EC50) for Cc1nn(-c2ccc(C(N)=O)c(NCCO)c2)c2c1C(=O)CC(C)(C)C2 was 12

Reported Selectivity Index TI (TC50/EC50) for CCOCCNc1cc(-n2nc(C)c3c2CC(C)(C)CC3=O)ccc1C(N)=O was 24

Reported Selectivity Index TI (TC50/EC50) for COCCNc1cc(-n2nc(C)c3c2CC(C)(C)CC3=O)ccc1C(N)=O was 901

Reported Selectivity Index TI (TC50/EC50) for Cc1nn(-c2ccc(C(N)=O)c(NC3CCC(O)CC3)c2)c2c1C(=O)CC(C)(C)C2 (stereo not shown) was 54
